test: Release in artificial intestinal juice; format: physicochemical; details: t 10 min; permeable bag, amount calculated on 100 mg free base
metric_name: Release in artificial intestinal juice, percent of the substance released (%)
Report the value in % with no unit label.

For reference, reported Release in artificial intestinal juice, percent of the substance released for CN(C)C[C@H]1CCCC[C@]1(O)c1cccc(O)c1.Cl [HCl-1] stands at 100.57

For reference, reported Release in artificial intestinal juice, percent of the substance released for CN(C)CC1CCCCC1(O)c1cccc(O)c1.CN(C)CC1CCCCC1(O)c1cccc(O)c1.O=C(O)C=CC(=O)O (stereo not shown) [E-1] stands at 100.58

For reference, reported Release in artificial intestinal juice, percent of the substance released for CN(C)CC1CCCCC1(O)c1cccc(O)c1.CN(C)CC1CCCCC1(O)c1cccc(O)c1.O=C(O)CCCCCCCCC(=O)O (stereo not shown) [F-2] stands at 100.92

For reference, reported Release in artificial intestinal juice, percent of the substance released for CN(C)CC1CCCCC1(O)c1cccc(O)c1.O=C(O)C=Cc1ccccc1 (stereo not shown) [A-1] stands at 92.24

For reference, reported Release in artificial intestinal juice, percent of the substance released for CN(C)CC1CCCCC1(O)c1cccc(O)c1.CN(C)CC1CCCCC1(O)c1cccc(O)c1.O=C(O)C=CC(=O)O (stereo not shown) [E-2] stands at 96.47

For reference, reported Release in artificial intestinal juice, percent of the substance released for CN(C)CC1CCCCC1(O)c1cccc(O)c1.O=C(O)C=Cc1ccccc1 (stereo not shown) [A-2] stands at 94.24

For reference, reported Release in artificial intestinal juice, percent of the substance released for CN(C)CC1CCCCC1(O)c1cccc(O)c1.CN(C)CC1CCCCC1(O)c1cccc(O)c1.O=C(O)CCCCCCCCC(=O)O (stereo not shown) [F-1] stands at 98.48

For reference, reported Release in artificial intestinal juice, percent of the substance released for CCCCCCCCCC(=O)O.CN(C)CC1CCCCC1(O)c1cccc(O)c1 (stereo not shown) [C-2] stands at 99.55

For reference, reported Release in artificial intestinal juice, percent of the substance released for CCCCCCCCCCCCCCCC(=O)O.CN(C)CC1CCCCC1(O)c1cccc(O)c1 stands at 67.26

For reference, reported Release in artificial intestinal juice, percent of the substance released for CN(C)C[C@H]1CCCC[C@]1(O)c1cccc(O)c1.Cl [HCl-2] stands at 100.29
